testedTarget: T1, human high affinity trimeric IL-2 receptor (CD25/CD122/CD132) (human, UniProt P01589 22-272; P14784 27-551; P31785 23-369)
T1 sequence 1: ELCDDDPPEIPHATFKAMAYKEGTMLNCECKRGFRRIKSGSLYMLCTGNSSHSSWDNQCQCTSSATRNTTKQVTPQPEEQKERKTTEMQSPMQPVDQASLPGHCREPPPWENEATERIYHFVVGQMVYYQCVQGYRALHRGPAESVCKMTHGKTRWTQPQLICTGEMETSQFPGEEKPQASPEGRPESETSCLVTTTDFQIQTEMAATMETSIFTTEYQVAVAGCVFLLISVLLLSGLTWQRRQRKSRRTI
T1 sequence 2: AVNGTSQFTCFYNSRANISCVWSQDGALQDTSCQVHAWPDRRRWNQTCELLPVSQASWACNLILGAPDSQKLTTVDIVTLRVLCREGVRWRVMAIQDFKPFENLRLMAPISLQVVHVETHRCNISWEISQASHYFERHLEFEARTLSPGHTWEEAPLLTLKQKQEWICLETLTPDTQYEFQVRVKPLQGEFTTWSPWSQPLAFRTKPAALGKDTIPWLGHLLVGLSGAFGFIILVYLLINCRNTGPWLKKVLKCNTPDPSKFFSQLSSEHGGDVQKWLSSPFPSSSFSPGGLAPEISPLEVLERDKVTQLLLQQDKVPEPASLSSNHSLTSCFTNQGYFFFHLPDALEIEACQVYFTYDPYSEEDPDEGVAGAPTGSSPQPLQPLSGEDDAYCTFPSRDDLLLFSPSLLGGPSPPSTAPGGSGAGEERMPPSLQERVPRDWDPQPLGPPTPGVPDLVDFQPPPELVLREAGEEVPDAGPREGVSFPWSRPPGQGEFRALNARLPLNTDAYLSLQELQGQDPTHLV
T1 sequence 3: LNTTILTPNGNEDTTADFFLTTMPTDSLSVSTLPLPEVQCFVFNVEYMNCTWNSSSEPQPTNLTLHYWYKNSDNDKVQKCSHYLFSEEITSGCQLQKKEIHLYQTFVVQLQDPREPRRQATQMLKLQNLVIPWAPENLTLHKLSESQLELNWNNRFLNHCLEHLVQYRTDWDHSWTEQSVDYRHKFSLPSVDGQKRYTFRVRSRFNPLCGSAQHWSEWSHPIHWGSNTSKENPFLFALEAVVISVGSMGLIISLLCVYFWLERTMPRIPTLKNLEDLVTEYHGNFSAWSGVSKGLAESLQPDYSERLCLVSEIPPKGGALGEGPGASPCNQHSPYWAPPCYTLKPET
testName: cell-based or functional assay
# if value of pSTAT5 ratio YT CD25/YT, dilution factor 16, lower table reaches 3, tag yes; if it stays below, tag no

binder	qualitativeLabel
NEH (ligand) cytokine: APTSSSTKKTQLQLEHLNLDLEMILNGINNYKNPKLTRMLTFKFYMPKKATELKHLQCLEEELKPLEEVLNLAQSKNFHLRPRDLISNINVIVLELKGSETTFMCEYADETATIVEFLNRWITFCHSIISTLT	no
RDH (ligand) cytokine: APTSSSTKKTQLQLEHLRLDLDMILNGINNYKNPKLTRMLTFKFYMPKKATELKHLQCLEEELKPLEEVLNLAQSKNFHLRPRDLISNINVIVLELKGSETTFMCEYADETATIVEFLNRWITFCHSIISTLT	no
RIH (ligand) cytokine: APTSSSTKKTQLQLEHLRLDLIMILNGINNYKNPKLTRMLTFKFYMPKKATELKHLQCLEEELKPLEEVLNLAQSKNFHLRPRDLISNINVIVLELKGSETTFMCEYADETATIVEFLNRWITFCHSIISTLT	yes
RWH (ligand) cytokine: APTSSSTKKTQLQLEHLRLDLWMILNGINNYKNPKLTRMLTFKFYMPKKATELKHLQCLEEELKPLEEVLNLAQSKNFHLRPRDLISNINVIVLELKGSETTFMCEYADETATIVEFLNRWITFCHSIISTLT	no
RTH (ligand) cytokine: APTSSSTKKTQLQLEHLRLDLTMILNGINNYKNPKLTRMLTFKFYMPKKATELKHLQCLEEELKPLEEVLNLAQSKNFHLRPRDLISNINVIVLELKGSETTFMCEYADETATIVEFLNRWITFCHSIISTLT	yes
RYH (ligand) cytokine: APTSSSTKKTQLQLEHLRLDLYMILNGINNYKNPKLTRMLTFKFYMPKKATELKHLQCLEEELKPLEEVLNLAQSKNFHLRPRDLISNINVIVLELKGSETTFMCEYADETATIVEFLNRWITFCHSIISTLT	yes
RGH (ligand) cytokine: APTSSSTKKTQLQLEHLRLDLGMILNGINNYKNPKLTRMLTFKFYMPKKATELKHLQCLEEELKPLEEVLNLAQSKNFHLRPRDLISNINVIVLELKGSETTFMCEYADETATIVEFLNRWITFCHSIISTLT	no
hIL2 mutein REH (L18R, Q22E, Q126H) (ligand) APTSSSTKKTQLQLEHLRLDLEMILNGINNYKNPKLTRMLTFKFYMPKKATELKHLQCLEEELKPLEEVLNLAQSKNFHLRPRDLISNINVIVLELKGSETTFMCEYADETATIVEFLNRWITFCHSIISTLT	no
HEH (ligand) cytokine: APTSSSTKKTQLQLEHLHLDLEMILNGINNYKNPKLTRMLTFKFYMPKKATELKHLQCLEEELKPLEEVLNLAQSKNFHLRPRDLISNINVIVLELKGSETTFMCEYADETATIVEFLNRWITFCHSIISTLT	yes
DEH (ligand) cytokine: APTSSSTKKTQLQLEHLDLDLEMILNGINNYKNPKLTRMLTFKFYMPKKATELKHLQCLEEELKPLEEVLNLAQSKNFHLRPRDLISNINVIVLELKGSETTFMCEYADETATIVEFLNRWITFCHSIISTLT	yes
RMH (ligand) cytokine: APTSSSTKKTQLQLEHLRLDLMMILNGINNYKNPKLTRMLTFKFYMPKKATELKHLQCLEEELKPLEEVLNLAQSKNFHLRPRDLISNINVIVLELKGSETTFMCEYADETATIVEFLNRWITFCHSIISTLT	no
RNH (ligand) cytokine: APTSSSTKKTQLQLEHLRLDLNMILNGINNYKNPKLTRMLTFKFYMPKKATELKHLQCLEEELKPLEEVLNLAQSKNFHLRPRDLISNINVIVLELKGSETTFMCEYADETATIVEFLNRWITFCHSIISTLT	yes
RLH (ligand) cytokine: APTSSSTKKTQLQLEHLRLDLLMILNGINNYKNPKLTRMLTFKFYMPKKATELKHLQCLEEELKPLEEVLNLAQSKNFHLRPRDLISNINVIVLELKGSETTFMCEYADETATIVEFLNRWITFCHSIISTLT	no

# credit: patent US20210275641A1
